The measurements presented in this section are drawn from the FLAb antibody collection (doi:10.7554/elife.23156).

B1: scFv; the commonest letter at each place (parent)
chain 1: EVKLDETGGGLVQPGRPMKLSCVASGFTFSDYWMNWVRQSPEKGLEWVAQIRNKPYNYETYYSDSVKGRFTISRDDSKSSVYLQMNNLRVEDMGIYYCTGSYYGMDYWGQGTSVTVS
chain 2: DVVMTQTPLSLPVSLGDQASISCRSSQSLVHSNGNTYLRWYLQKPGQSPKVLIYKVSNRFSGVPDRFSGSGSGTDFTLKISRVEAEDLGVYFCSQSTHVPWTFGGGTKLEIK

Variants of: B1
Assay Notes: yeast surface expression (ratio to wild type); higher = more expressed
Applied Conditions: format: scFv 4-4-20, heavy + light
Collected yeast surface expression values appear next to each entry.
Quantity Measured: yeast surface expression

| Mutation Key | Quantity Measured | Result |
| --- | --- | --- |
| chain 1 T28F F29H | yeast surface expression | 0.638 |
| chain 1 T28E S30I W33I | yeast surface expression | 0.628 |
| chain 1 T28C D31S | yeast surface expression | 0.694 |
| chain 1 W33R | yeast surface expression | 0.877 |
| chain 1 G100V | yeast surface expression | 0.97 |
| chain 1 Y102T M105K | yeast surface expression | 0.849 |
| chain 1 N35D W36V | yeast surface expression | 0.668 |
| chain 1 F29M V37Y | yeast surface expression | 1.04 |
| chain 1 W33V N35T | yeast surface expression | 0.89 |
| chain 1 S101T Y103E G104K | yeast surface expression | 0.854 |
| chain 1 Y102H G104F W108Y | yeast surface expression | 0.283 |
| chain 1 T28R Y32H | yeast surface expression | 1 |
| chain 1 Y102Q G104L | yeast surface expression | 0.667 |
| chain 1 S101A Y103E | yeast surface expression | 1.23 |
| chain 1 F29V D31E | yeast surface expression | 0.753 |
| chain 1 N35R W36K | yeast surface expression | 2.76 |
| chain 1 S30H M34F | yeast surface expression | 0.945 |
| chain 1 Y32D W33V | yeast surface expression | 0.594 |
| chain 1 Y107C | yeast surface expression | 0.592 |
| chain 1 D31Q V37P | yeast surface expression | 0.0981 |
| chain 1 W33T M34S V37E | yeast surface expression | 0.787 |
| chain 1 T28N D31C | yeast surface expression | 0.826 |
